# Test system: ALS enzyme extracted from Mutant 10 (heterozygous)
# PROTOCOL NOTES: ALS enzyme assay, heterozygous Mutant 10
# Type: biochemical, Zea mays
# MEASUREMENT CONTEXT: fold increase in resistance vs wild type, heterozygous Mutant 10; 30 min
# Method: Seeds of generation M₁BC₁ M₁BC₂ of the nine mutants were sprayed pre-emergence with the herbicide imazethapyr (PURSUIT) (Trade Mark) at a rate of 250 g/ha and grown in a growth chamber (16 hour day, 27°C; 8 hour night, 17°C). Plants were harvested after 11 days. […] One hundred microlitres of the enzyme extract was used for each assay. […] After centrifugation at 30,000g the optical density of the supernatant was read at 540nm. […]
Checkbox rule: Fold Increase lower than 5 = class 1; Fold Increase not lower than 5 = class 0.

[[record]]
molecule = "CCc1cnc(C2=NC(=O)C(C)(C(C)C)N2)c(C(=O)O)c1 (stereo not drawn) [Imazethapyr]"
category = "class 0"

[[record]]
molecule = "COC(=O)c1sccc1S(=O)(=O)NC(=O)Nc1nc(C)nc(OC)n1 [Thiacarburon, thiacarburon]"
category = "class 0"

[[record]]
molecule = "CC(C)C1(C)N=C(c2ncccc2C(=O)O)NC1=O (stereo not drawn) [Imazapyr, imazapyr]"
category = "class 0"

[[record]]
molecule = "CC(C)C1(C)N=C(c2nc3ccccc3cc2C(=O)O)NC1=O (stereo not drawn) [Imazaquin, imazaquin]"
category = "class 0"

[[record]]
molecule = "COc1nc(C)nc(NC(=O)NS(=O)(=O)c2ccccc2Cl)n1 [Chlorsulfuron, chlorsulfuron]"
category = "class 1"


* * *

# System: ALS enzyme extracted from Mutant 1 (heterozygous)
# PROTOCOL NOTES: ALS enzyme assay, heterozygous Mutant 1
# Format: biochemical, Zea mays
# MEASUREMENT CONTEXT: Mutant 1; groups Strong, Intermediate, Weak, Zero
MEASURED PARAMETER: resistance group, Enzyme Assay

[[record]]
compound = "COc1cc(Cl)nc(NC(=O)NS(=O)(=O)c2ccccc2C(=O)O)n1"
target_of_assay = "ALS enzyme extracted from Mutant 1 (heterozygous)"
result_value = "Weak"

[[record]]
compound = "CCc1cnc(C2=NC(=O)C(C)(C(C)C)N2)c(C(=O)O)c1 (stereo not drawn)"
target_of_assay = "ALS enzyme extracted from Mutant 1 (heterozygous)"
result_value = "Strong"

[[record]]
compound = "COC(=O)c1sccc1S(=O)(=O)NC(=O)Nc1nc(C)nc(OC)n1"
target_of_assay = "ALS enzyme extracted from Mutant 1 (heterozygous)"
result_value = "Weak"

[[record]]
compound = "CC(C)C1(C)N=C(c2nc3ccccc3cc2C(=O)O)NC1=O (stereo not drawn)"
target_of_assay = "ALS enzyme extracted from Mutant 1 (heterozygous)"
result_value = "Strong"

[[record]]
compound = "CC(C)C1(C)N=C(c2ncccc2C(=O)O)NC1=O (stereo not drawn)"
target_of_assay = "ALS enzyme extracted from Mutant 1 (heterozygous)"
result_value = "Strong"

[[record]]
compound = "COc1nc(C)nc(NC(=O)NS(=O)(=O)c2ccccc2Cl)n1"
target_of_assay = "ALS enzyme extracted from Mutant 1 (heterozygous)"
result_value = "Weak"


* * *

# Tested on: ALS enzyme extracted from Mutant 2 (heterozygous)
# PROTOCOL NOTES: ALS enzyme assay, heterozygous Mutant 2
# Assay type: biochemical, Zea mays
# MEASUREMENT CONTEXT: Mutant 2; groups Strong, Intermediate, Weak, Zero
MEASURED PARAMETER: resistance group, Enzyme Assay

[[record]]
molecule = "COc1cc(Cl)nc(NC(=O)NS(=O)(=O)c2ccccc2C(=O)O)n1"
result_value = "Weak"

[[record]]
molecule = "COc1nc(C)nc(NC(=O)NS(=O)(=O)c2ccccc2Cl)n1"
result_value = "Weak"

[[record]]
molecule = "CCc1cnc(C2=NC(=O)C(C)(C(C)C)N2)c(C(=O)O)c1 (stereo not drawn)"
result_value = "Intermediate"

[[record]]
molecule = "COC(=O)c1sccc1S(=O)(=O)NC(=O)Nc1nc(C)nc(OC)n1"
result_value = "Intermediate"

[[record]]
molecule = "CC(C)C1(C)N=C(c2nc3ccccc3cc2C(=O)O)NC1=O (stereo not drawn)"
result_value = "Intermediate"


* * *

# IC50 annotations
# TARGET OF ASSAY: ALS extracted from leaves of MUTANT 1 (homozygous)
# PROTOCOL NOTES: ALS enzyme assay, homozygous Mutant 1
# MEASUREMENT CONTEXT: ALS of homozygous Mutant 1; read-out: ID50% Mutant
# Experimental: Four grams of leaf material were harvested from just above the first leaf axis and ground in a mortar and pestle in 20ml of a solution containing 40mM Tricine (Trade Mark), 10mM EDTA, 5mM pyruvate, 80 »M flavin adenine dinucleotide (FAD), 1mM dithiothreitol (DTT), pH 8, plus 0.8g Polyclar AT. […] One hundred microlitres of the enzyme extract was used for each assay. […] After centrifugation at 30,000g the optical density of the supernatant was read at 540nm. […]
MEASURED PARAMETER: IC50 (µM)

[[record]]
compound = "CC(C)C1(C)N=C(c2nc3ccccc3cc2C(=O)O)NC1=O (stereo not drawn) [Imazaquin, imazaquin]"
result_unit = "µM"
operator_symbol = "="
result_value = 175

[[record]]
compound = "CC(C)C1(C)N=C(c2ncccc2C(=O)O)NC1=O (stereo not drawn) [Imazapyr, imazapyr]"
result_unit = "µM"
operator_symbol = ">"
result_value = 1000

[[record]]
compound = "COC(=O)c1sccc1S(=O)(=O)NC(=O)Nc1nc(C)nc(OC)n1 [Thiacarburon, thiacarburon]"
result_unit = "µM"
operator_symbol = "="
result_value = 0.04

[[record]]
compound = "COc1nc(C)nc(NC(=O)NS(=O)(=O)c2ccccc2Cl)n1 [Chlorsulfuron, chlorsulfuron]"
result_unit = "µM"
operator_symbol = "="
result_value = 0.06

[[record]]
compound = "CCc1cnc(C2=NC(=O)C(C)(C(C)C)N2)c(C(=O)O)c1 (stereo not drawn) [Imazethapyr]"
result_unit = "µM"
operator_symbol = "="
result_value = 750

[[record]]
compound = "COc1cc(Cl)nc(NC(=O)NS(=O)(=O)c2ccccc2C(=O)O)n1 [Chlorimuron, chlorimuron]"
result_unit = "µM"
operator_symbol = "="
result_value = 0.01


* * *

# TARGET OF ASSAY: ALS enzyme extracted from Mutant 6 (heterozygous)
# PROTOCOL NOTES: ALS enzyme assay, heterozygous Mutant 6
# MEASUREMENT CONTEXT: ALS of heterozygous Mutant 6; read-out: ID50% (the source's name)
pIC50: −log10 of the molar value.
MEASURED PARAMETER: pIC50

[[record]]
compound = "COc1cc(Cl)nc(NC(=O)NS(=O)(=O)c2ccccc2C(=O)O)n1"
target_of_assay = "ALS enzyme extracted from Mutant 6 (heterozygous)"
result_value = 7.82

[[record]]
compound = "CC(C)C1(C)N=C(c2ncccc2C(=O)O)NC1=O (stereo not drawn)"
target_of_assay = "ALS enzyme extracted from Mutant 6 (heterozygous)"
result_value = 5.30

[[record]]
compound = "CC(C)C1(C)N=C(c2nc3ccccc3cc2C(=O)O)NC1=O (stereo not drawn)"
target_of_assay = "ALS enzyme extracted from Mutant 6 (heterozygous)"
result_value = 5.82

[[record]]
compound = "CCc1cnc(C2=NC(=O)C(C)(C(C)C)N2)c(C(=O)O)c1 (stereo not drawn)"
target_of_assay = "ALS enzyme extracted from Mutant 6 (heterozygous)"
result_value = 4.22

[[record]]
compound = "COC(=O)c1sccc1S(=O)(=O)NC(=O)Nc1nc(C)nc(OC)n1"
target_of_assay = "ALS enzyme extracted from Mutant 6 (heterozygous)"
result_value = 7.35

[[record]]
compound = "COc1nc(C)nc(NC(=O)NS(=O)(=O)c2ccccc2Cl)n1"
target_of_assay = "ALS enzyme extracted from Mutant 6 (heterozygous)"
result_value = 7.19


* * *

# TARGET OF ASSAY: ALS (acetolactate synthase), Wild type
# PROTOCOL NOTES: ALS enzyme assay, wild-type control
# Format: biochemical, Zea mays
# MEASUREMENT CONTEXT: herbicide concentration giving 50% inhibition of ALS activity, read-out: ID50% (the source's name)
MEASURED PARAMETER: IC50 (nM)

[[record]]
compound = "CC(C)C1(C)N=C(c2nc3ccccc3cc2C(=O)O)NC1=O (stereo not drawn) [Imazaquin, imazaquin]"
result_value = 600

[[record]]
compound = "CCc1cnc(C2=NC(=O)C(C)(C(C)C)N2)c(C(=O)O)c1 (stereo not drawn) [Imazethapyr]"
result_value = 1500

[[record]]
compound = "CC(C)C1(C)N=C(c2ncccc2C(=O)O)NC1=O (stereo not drawn) [Imazapyr, imazapyr]"
result_value = 3000


* * *

# Tested on: ALS enzyme extracted from Mutant 2 (heterozygous)
# PROTOCOL NOTES: ALS enzyme assay, heterozygous Mutant 2
# Format: biochemical, Zea mays
# MEASUREMENT CONTEXT: fold increase in resistance vs wild type, heterozygous Mutant 2; 30 min
MEASURED PARAMETER: Fold Increase

[[record]]
molecule = "CC(C)C1(C)N=C(c2ncccc2C(=O)O)NC1=O (stereo not drawn)"
result_value = 180

[[record]]
molecule = "CCc1cnc(C2=NC(=O)C(C)(C(C)C)N2)c(C(=O)O)c1 (stereo not drawn)"
result_value = 153

[[record]]
molecule = "COC(=O)c1sccc1S(=O)(=O)NC(=O)Nc1nc(C)nc(OC)n1"
result_value = 8

[[record]]
molecule = "COc1cc(Cl)nc(NC(=O)NS(=O)(=O)c2ccccc2C(=O)O)n1"
result_value = 3

[[record]]
molecule = "COc1nc(C)nc(NC(=O)NS(=O)(=O)c2ccccc2Cl)n1"
result_value = 4

[[record]]
molecule = "CC(C)C1(C)N=C(c2nc3ccccc3cc2C(=O)O)NC1=O (stereo not drawn)"
result_value = 33


src = patent EP0472573B1
